Source: paper PMC12040169

assay: in vitro; conditions: human, hela cells, % viability
Measured viability at 28.5 h, 10 µM of individual entries
REPORTED_METRIC: viability at 28.5 h, 10 µM (%)

> print(dat)
                                   molecule             reported.metric  unit.annotation  measurement
1  CN(CC(=O)N1CCOCC1)S(=O)(=O)c1ccc2ccccc2c1  viability at 28.5 h, 10 µM                %         98.5
2  COc1cc(OC)nc(CN2C(=O)CC3(C2=O)C(=O)N(CC(=O)c2ccccc2)c2ccc(C)cc23)n1 (centres unmarked)  viability at 28.5 h, 10 µM                %         96.7
3  N#Cc1ccccc1COC(=O)c1cc(-c2ccc(/C=C/c3nc(O)c([N+](=O)[O-])c(=O)[nH]3)o2)ccc1Cl  viability at 28.5 h, 10 µM                %          101
4  COC(=O)c1c(-c2ccncc2)csc1NC(=O)Cc1ccc([N+](=O)[O-])cc1  viability at 28.5 h, 10 µM                %         90.1
5  O=C(O)C(Cc1c[nH]c2ccccc12)N1Cc2ccccc2C1=O (centres unmarked)  viability at 28.5 h, 10 µM                %           82
6  COc1ccc(CCNC(=O)c2cc(-c3ccc(C)o3)nc3ccccc23)cc1OC  viability at 28.5 h, 10 µM                %          117
7  COc1cc2c(cc1OC)C1(CCOCC1)CNC2CC(c1ccccc1)c1ccccc1 (centres unmarked)  viability at 28.5 h, 10 µM                %         91.4
8  O=C(O)C1CSC(c2ccc(-c3cccc(Cl)c3)o2)N1 (centres unmarked)  viability at 28.5 h, 10 µM                %         97.5
